A collection of binders and their measured EC50 (pM), activation of PGLALA-CAR-J cells in presence of MAGE-A4 peptide pulsed T2 cells
Molecular target: HLA-A2/MAGE-A4 peptide MHC (pMHC) complex on cells (human)
Test: cell-based or functional assay
The response must be a number in pM with no trailing unit.

Recorded EC50 (pM), activation of PGLALA-CAR-J cells in presence of MAGE-A4 peptide pulsed T2 cells, per entry:
binder	test.value
Molecule H (antibody, V domains shown, also called 007A09 IgG antibody) VH: YVQLVESGGGLVKPGGSLRLSCAAPLPFTGLDMSWVRQAPGKGLEWVGSISPKGGSTYYNDNVLGRFTISRDNSKNTLYLQMNSLRAEDTAVYYCARDWGFFDLWGQGTLVTVSS VL: AIQMTQSPSSLSASVGDRVTITCRASQSISNYLAWYQQKPGKAPKLLIYDANAHENDVPSRFSGSGSGTDFTLTISSLQPEDFATYYCQQYSSHPYTFGQGTKLEIK	8.6
Molecule J (antibody, V domains shown, also called 057B04 IgG antibody) VH: TQQLVESGGGLVQPGGSLRLSCAASGFSFSFDTMSWVRQAPGKGLEWVGSISPSGGSTYYNDNVLGRFTISRDNSKNTLYLQMNSLRAEDTAVYYCARDHGYFDMWGQGTLVTVSS VL: DIQMTQSPSSLSASVGDRVTITCRASQSISSYLAWYQQKPGKAPKLLIYDASWLELGVPSRFSGSGSGTDFTLTISSLQPEDFATYYCQQYSSYPYTFGQGTKLEIK	208
Molecule N (antibody, V domains shown) VH: QVQLQQSGGEVMKPGASVKLSCKATGYTFTGYWIEWIKQRPGHGLEWIGEILPGSGGTNYNEKFKGKATFTAHTSSNTAYMQLSSLTTEDSAIYYCARDSNSFTYWGQGTLVTVSS VL: QIVLTQSPAIMSASPGEKVTITCSVSSSVDYIHWFQQKPGTSPKFWIYSTSILASGVPARFSGSGSGTSYSLTISRMEAEDAATYYCQQRSSYPPTFGSGTKLEIK	19.2

So what does the record say about EC50 (pM), activation of PGLALA-CAR-J cells in presence of MAGE-A4 peptide pulsed T2 cells for Molecule K (antibody, V domains shown, also called 057D03 IgG antibody) VH: AQLVESGGGLVQPGGSLRLSCAASAYFSFKAMSWVRQAPGKGLEWVGSISPSGGSTYYNDNVLGRFTISRDNSKNTLYLQMNSLRAEDTAVYYCAKDVGFFDEWGQGTLVTVSS VL: DIQMTQSPSSLSASVGDRVTITCRASQSISSYLAWYQQKPGKAPKLLIYDASIRDIGVPSRFSGSGSGTDFTLTISSLQPEDFATYYCQQYSSYPYTFGQGTKLEIK ?
18.2
